Recorded values, source patent US20100260765A1.

biological target: KDR (human, UniProt P35968 20-1356); assay: cell-based or functional assay
Sequence (P35968 20-1356): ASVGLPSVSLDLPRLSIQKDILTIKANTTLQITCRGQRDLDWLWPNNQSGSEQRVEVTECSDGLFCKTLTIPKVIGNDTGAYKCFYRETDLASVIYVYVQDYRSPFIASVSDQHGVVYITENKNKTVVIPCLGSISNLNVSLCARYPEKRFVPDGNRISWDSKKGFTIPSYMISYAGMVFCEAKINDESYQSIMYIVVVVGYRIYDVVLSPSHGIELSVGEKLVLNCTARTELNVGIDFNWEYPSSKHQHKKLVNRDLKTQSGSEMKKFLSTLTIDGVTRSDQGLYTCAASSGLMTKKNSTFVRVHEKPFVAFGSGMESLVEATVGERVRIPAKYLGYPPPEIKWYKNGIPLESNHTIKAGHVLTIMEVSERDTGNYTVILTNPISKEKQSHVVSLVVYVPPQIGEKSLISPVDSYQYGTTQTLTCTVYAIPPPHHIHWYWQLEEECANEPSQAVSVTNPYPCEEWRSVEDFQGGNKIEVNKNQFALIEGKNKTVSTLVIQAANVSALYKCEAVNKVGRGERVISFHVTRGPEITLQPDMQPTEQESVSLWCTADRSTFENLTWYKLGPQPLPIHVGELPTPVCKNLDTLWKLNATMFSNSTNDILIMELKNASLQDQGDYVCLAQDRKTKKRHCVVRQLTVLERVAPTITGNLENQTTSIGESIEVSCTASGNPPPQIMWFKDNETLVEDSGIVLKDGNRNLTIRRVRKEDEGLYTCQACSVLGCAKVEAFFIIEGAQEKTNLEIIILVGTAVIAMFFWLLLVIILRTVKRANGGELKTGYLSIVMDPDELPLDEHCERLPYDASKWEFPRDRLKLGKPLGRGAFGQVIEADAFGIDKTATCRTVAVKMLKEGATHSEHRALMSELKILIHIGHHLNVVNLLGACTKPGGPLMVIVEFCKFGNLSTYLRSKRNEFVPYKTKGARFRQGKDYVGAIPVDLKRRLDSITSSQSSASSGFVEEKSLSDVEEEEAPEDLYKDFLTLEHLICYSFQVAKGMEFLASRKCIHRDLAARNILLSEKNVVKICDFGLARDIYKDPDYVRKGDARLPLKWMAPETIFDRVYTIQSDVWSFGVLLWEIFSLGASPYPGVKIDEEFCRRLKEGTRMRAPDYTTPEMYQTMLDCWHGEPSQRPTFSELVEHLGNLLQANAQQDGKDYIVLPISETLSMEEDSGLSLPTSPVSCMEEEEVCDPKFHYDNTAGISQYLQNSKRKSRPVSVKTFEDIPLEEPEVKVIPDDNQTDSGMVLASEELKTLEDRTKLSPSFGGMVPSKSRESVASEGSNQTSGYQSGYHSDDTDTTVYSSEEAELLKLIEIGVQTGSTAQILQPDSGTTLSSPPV
Each entry below lists one item and its recorded Activity at 133 nM Antibody Concentration (% Survival Inhibition), N = 1 value.
Report only the number, with the unit % understood.

In the examples that follow, each entry is paired with its recorded Activity at 133 nM Antibody Concentration (% Survival Inhibition), N = 1.
- binder: "1G6 (antibody, V domains shown) VH: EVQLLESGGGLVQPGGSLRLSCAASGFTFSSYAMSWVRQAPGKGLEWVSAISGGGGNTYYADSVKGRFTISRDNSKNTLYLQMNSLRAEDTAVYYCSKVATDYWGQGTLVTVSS VL: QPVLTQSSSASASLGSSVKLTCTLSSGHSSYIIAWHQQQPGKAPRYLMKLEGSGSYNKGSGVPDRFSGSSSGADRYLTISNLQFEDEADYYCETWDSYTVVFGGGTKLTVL"
  numeric_value: 9
- binder: "32G7 (antibody, V domains shown) VH: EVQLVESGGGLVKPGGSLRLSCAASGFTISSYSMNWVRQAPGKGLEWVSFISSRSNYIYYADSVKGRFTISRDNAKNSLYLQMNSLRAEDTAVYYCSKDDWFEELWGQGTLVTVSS VL: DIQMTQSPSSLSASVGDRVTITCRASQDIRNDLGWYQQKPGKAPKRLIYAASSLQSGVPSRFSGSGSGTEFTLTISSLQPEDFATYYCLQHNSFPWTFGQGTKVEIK"
  numeric_value: 70
- binder: "33D5 (antibody, V domains shown) VH: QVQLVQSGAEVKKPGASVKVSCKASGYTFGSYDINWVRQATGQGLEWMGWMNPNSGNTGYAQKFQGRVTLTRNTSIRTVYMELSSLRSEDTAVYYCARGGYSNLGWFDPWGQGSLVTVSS VL: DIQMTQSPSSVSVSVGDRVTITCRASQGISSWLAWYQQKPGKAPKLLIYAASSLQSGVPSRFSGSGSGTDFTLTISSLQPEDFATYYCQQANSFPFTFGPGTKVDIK"
  numeric_value: 13
- binder: "29H3 (antibody, V domains shown) VH: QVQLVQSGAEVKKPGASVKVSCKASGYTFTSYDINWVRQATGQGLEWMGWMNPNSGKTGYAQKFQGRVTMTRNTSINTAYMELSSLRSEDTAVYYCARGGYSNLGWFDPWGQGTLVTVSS VL: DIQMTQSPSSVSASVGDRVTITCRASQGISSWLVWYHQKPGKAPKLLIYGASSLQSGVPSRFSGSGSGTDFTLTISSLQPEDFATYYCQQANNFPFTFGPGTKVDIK"
  numeric_value: -5

The recorded Activity at 133 nM Antibody Concentration (% Survival Inhibition), N = 1 for 32F4 (antibody, V domains shown) VH: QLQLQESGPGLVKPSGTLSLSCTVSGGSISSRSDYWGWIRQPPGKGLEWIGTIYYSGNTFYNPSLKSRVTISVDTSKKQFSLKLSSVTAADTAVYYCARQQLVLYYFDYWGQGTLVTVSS VL: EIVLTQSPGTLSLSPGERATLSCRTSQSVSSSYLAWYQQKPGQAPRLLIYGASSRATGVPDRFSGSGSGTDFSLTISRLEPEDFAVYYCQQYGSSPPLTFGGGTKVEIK is 88
